Origin of values: paper PMC8786932

- system_under_test: TgPheRS[V262A] (Toxoplasma gondii, UniProt A0A125YPN6, V262A)
- Sequence (A0A125YPN6 1-525 V262A): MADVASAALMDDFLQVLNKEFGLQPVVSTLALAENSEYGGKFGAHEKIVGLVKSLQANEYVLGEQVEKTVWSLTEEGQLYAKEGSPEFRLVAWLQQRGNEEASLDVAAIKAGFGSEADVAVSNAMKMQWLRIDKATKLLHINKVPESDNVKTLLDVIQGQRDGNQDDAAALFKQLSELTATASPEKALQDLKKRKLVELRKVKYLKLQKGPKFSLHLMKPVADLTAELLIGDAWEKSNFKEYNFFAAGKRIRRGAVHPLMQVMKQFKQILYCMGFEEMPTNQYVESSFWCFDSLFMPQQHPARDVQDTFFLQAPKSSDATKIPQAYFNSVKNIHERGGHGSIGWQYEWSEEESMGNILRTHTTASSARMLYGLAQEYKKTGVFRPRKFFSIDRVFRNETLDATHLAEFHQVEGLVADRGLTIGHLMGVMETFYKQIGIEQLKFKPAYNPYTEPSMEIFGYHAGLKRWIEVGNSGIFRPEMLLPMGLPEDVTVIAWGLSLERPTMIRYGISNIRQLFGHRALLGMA
- Sequence (S8EZ50 1-675 partner): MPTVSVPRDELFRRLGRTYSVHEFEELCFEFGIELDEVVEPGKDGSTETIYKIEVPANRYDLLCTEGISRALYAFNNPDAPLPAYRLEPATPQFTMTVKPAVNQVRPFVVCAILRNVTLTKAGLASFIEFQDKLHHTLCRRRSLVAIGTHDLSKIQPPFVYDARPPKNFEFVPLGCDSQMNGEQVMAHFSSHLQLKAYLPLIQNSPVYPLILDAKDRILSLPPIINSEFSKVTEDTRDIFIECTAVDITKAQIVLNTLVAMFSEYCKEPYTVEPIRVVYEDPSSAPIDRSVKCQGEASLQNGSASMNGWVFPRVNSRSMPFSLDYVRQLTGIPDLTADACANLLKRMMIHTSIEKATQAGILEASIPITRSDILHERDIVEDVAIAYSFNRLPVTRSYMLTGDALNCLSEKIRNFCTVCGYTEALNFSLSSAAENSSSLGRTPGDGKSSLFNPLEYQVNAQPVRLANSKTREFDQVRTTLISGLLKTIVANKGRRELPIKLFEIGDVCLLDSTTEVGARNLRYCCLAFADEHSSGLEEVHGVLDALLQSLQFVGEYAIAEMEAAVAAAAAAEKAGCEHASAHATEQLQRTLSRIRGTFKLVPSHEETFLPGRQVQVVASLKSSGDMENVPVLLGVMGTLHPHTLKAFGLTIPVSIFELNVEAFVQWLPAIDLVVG
- measurement_protocol: Enzyme assay, TgPheRS V262A
- condition_label: Table S4, V262A; read-out: IC50 (enzyme inhibition)

{"chemical_smiles": "COc1ccc(NC(=O)N2CCCCN3[C@H](CN(C)C)[C@H](c4ccc(C#Cc5ccccc5)cc4)[C@@H]3C2)cc1", "system_under_test": "TgPheRS[V262A] (Toxoplasma gondii, UniProt A0A125YPN6, V262A)", "unit_symbol": "µM", "IC50": 0.207}
